koff values by entry
- SYSTEM_TESTED: T1, sIL-6R (soluble IL-6 receptor; SBH Sciences) (human, UniProt P08887 20-365)
- T1 construct: also called human IL-6R
- T1 sequence: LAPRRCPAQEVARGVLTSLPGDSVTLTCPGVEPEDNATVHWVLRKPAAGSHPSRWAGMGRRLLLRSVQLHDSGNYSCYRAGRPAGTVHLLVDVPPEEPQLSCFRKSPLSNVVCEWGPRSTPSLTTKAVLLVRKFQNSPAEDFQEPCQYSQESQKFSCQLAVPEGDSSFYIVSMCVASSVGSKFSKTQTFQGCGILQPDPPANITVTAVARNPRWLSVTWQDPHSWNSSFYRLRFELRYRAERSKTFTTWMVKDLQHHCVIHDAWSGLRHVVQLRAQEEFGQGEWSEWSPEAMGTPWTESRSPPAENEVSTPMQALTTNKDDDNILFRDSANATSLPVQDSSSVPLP
- PROTOCOL_NOTES: SPR (BIAcore 3000), antibody on chip, sIL-6R analyte, 25 C
Number only, in s⁻¹; omit the unit.

Known koff results, listed for orientation:
BINDER	U	koff
55# (antibody, human IgG1, kappa, V domains shown, also called Sample # 55) VH: QVQLQESGPGLVRPSQTLSLTCTVSGYSITSDHAWSWVRQPPGRGLEWIGFISYSGMITYNPSLKSRVTMLRDTSKNQFSLRLSSVTAADTAVYYCARCLARTTAMDYWGQGSLVTVSS VL: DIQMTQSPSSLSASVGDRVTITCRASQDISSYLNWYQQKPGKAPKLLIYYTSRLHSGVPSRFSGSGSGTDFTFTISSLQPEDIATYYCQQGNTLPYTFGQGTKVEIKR	s⁻¹	7.24e-05
231# (antibody, human IgG1, kappa, V domains shown, also called Sample # 231) VH: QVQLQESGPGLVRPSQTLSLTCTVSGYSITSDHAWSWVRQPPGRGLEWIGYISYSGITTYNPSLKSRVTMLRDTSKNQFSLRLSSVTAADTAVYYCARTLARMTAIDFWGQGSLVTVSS VL: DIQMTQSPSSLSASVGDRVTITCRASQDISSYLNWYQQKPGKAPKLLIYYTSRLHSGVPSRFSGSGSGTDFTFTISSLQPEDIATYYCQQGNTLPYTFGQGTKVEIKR	s⁻¹	1.48e-07

Field request: koff | item: 232# (antibody, human IgG1, kappa, V domains shown) VH: QVQLQESGPGLVRPSQTLSLTCTVSGYSITSDHAWSWVRQPPGRGLEWIGYISYSGMITYNPSLKSRVTMLRDTSKNQFSLRLSSVTAADTAVYYCARTLARMTAMDYWGQGSLVTVSS VL: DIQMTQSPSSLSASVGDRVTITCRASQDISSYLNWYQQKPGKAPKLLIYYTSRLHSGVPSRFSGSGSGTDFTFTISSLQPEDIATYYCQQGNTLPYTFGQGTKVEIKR 4.81e-05
